Parameter Population Normal (%): see the listing below.
System: HEK-293T
Assay: Multiplex assay against HEK293T
Format: toxicity, cell-based
Conditions: human, 12 h, 10 µM, compound concentration 10 uM, replicate 2
Non-standard residues stand in square brackets, D forms with d. Residues, ends and D or L forms follow the SMILES beside them.
reportedMetric: Population Normal (%)

[
  {
    "molecule": "Cc1sc2c(c1C)C(c1ccc(Cl)cc1)=N[C@H](CC(=O)OC(C)(C)C)c1nnc(C)n1-2",
    "assayTarget": "HEK-293T",
    "readoutValue": 89
  },
  {
    "molecule": "O=C(NCCNCC(O)COc1ccc(O)cc1)N1CCOCC1.O=C(NCCNCC(O)COc1ccc(O)cc1)N1CCOCC1.O=C(O)/C=C/C(=O)O (configuration not stated) [XAMOTEROL FUMARATE]",
    "assayTarget": "HEK-293T",
    "readoutValue": 94
  },
  {
    "molecule": "COc1ccc2[nH]c(I)c(CCNC(C)=O)c2c1 [IODOMELATONIN]",
    "assayTarget": "HEK-293T",
    "readoutValue": 87
  },
  {
    "molecule": "C[C@@H]1CC(=O)Nc2cccc(-c3ccc4c(c3)c(-c3cnn(C)c3)nn4C)c2N1",
    "assayTarget": "HEK-293T",
    "readoutValue": 87
  },
  {
    "molecule": "CCc1nn2c(C)cc(C)nc2c1Cc1ccc(-c2nnc(C3CCNCC3)o2)cc1",
    "assayTarget": "HEK-293T",
    "readoutValue": 87
  },
  {
    "molecule": "Cc1nn(C)c2nc(NNC(=O)Nc3cc(Cl)nc(Cl)c3)cc(C(C)C)c12",
    "assayTarget": "HEK-293T",
    "readoutValue": 96
  },
  {
    "molecule": "COc1ccc2c(c1OCc1ccccc1)C[C@@H](C(=O)O)N(C(=O)C(c1ccccc1)c1ccccc1)C2 [OLODANRIGAN]",
    "assayTarget": "HEK-293T",
    "readoutValue": 96
  },
  {
    "molecule": "CN1CCN2c3ccccc3Cc3ccccc3C2C1.Cl (configuration not stated) [MIANSERIN HYDROCHLORIDE]",
    "assayTarget": "HEK-293T",
    "readoutValue": 95
  },
  {
    "molecule": "Nc1nc(CC(=O)Nc2ccc(CCNC[C@H](O)c3ccccc3)cc2)cs1 [MIRABEGRON]",
    "assayTarget": "HEK-293T",
    "readoutValue": 91
  },
  {
    "molecule": "Cl.Cl.OCCOCCN1CCN(C(c2ccccc2)c2ccc(Cl)cc2)CC1 (configuration not stated) [HYDROXYZINE HYDROCHLORIDE]",
    "assayTarget": "HEK-293T",
    "readoutValue": 80
  },
  {
    "molecule": "C=CCN1C[C@H](C(=O)N(CCCN(C)C)C(=O)NCC)C[C@@H]2c3cccc4[nH]cc(c34)C[C@H]21 [CABERGOLINE]",
    "assayTarget": "HEK-293T",
    "readoutValue": 91
  },
  {
    "molecule": "CC(C)(C)c1ccc(CSc2cnn(C(C)(C)C)c(=O)c2Cl)cc1 [PYRIDABEN]",
    "assayTarget": "HEK-293T",
    "readoutValue": 82
  },
  {
    "molecule": "COc1c(Nc2ccc(S(C)(=O)=O)nc2C)ncnc1OC1CCN(C(=O)OC(C)C)CC1 [ADP-597]",
    "assayTarget": "HEK-293T",
    "readoutValue": 74
  },
  {
    "molecule": "CN1C[C@H](C(=O)N[C@]2(C)O[C@@]3(O)[C@@H]4CCCN4C(=O)[C@H](Cc4ccccc4)N3C2=O)C[C@@H]2c3cccc4[nH]cc(c34)C[C@H]21.CS(=O)(=O)O [DIHYDROERGOTAMINE MESYLATE]",
    "assayTarget": "HEK-293T",
    "readoutValue": 88
  },
  {
    "molecule": "Cc1cc(=O)n(C)c2cc(N3C(=O)CC[C@H](NS(=O)(=O)CC(C)C)[C@H]3c3ccc(Cl)cc3)ccc12",
    "assayTarget": "HEK-293T",
    "readoutValue": 83
  },
  {
    "molecule": "Cn1cc(C(=O)OCC2CCN(CCNS(C)(=O)=O)CC2)c2ccccc21",
    "assayTarget": "HEK-293T",
    "readoutValue": 89
  },
  {
    "molecule": "Cc1cc(O)c(-c2ccc([C@@H](C)CN(C)C)cc2)c2c1[nH]c(=O)c1sccc12",
    "assayTarget": "HEK-293T",
    "readoutValue": 71
  },
  {
    "molecule": "CCn1c(-c2nc3cc(C(=O)N4CCCC(N)C4)ccc3n2C)cc2ccccc21.Cl (configuration not stated)",
    "assayTarget": "HEK-293T",
    "readoutValue": 91
  },
  {
    "molecule": "O=C(Nc1cc(-c2ccccc2)nn1-c1ccccc1F)c1ccc([N+](=O)[O-])cc1",
    "assayTarget": "HEK-293T",
    "readoutValue": 93
  },
  {
    "molecule": "O=c1nc2[nH]c3ccccc3nc-2c(=O)[nH]1 [ALLOXAZINE]",
    "assayTarget": "HEK-293T",
    "readoutValue": 84
  },
  {
    "molecule": "COc1cc(Nc2ncc3c(n2)-c2ccc(Cl)cc2C(c2c(F)cccc2OC)=NC3)ccc1C(=O)O [ALISERTIB]",
    "assayTarget": "HEK-293T",
    "readoutValue": 84
  },
  {
    "molecule": "COC(c1ccccc1)(c1ccccc1)[C@H](Oc1nc(C)cc(C)n1)C(=O)O [AMBRISENTAN]",
    "assayTarget": "HEK-293T",
    "readoutValue": 86
  },
  {
    "molecule": "CSc1nc(NC2CCCC2)c([N+](=O)[O-])c(NC2CCCC2)n1 [GS-39783]",
    "assayTarget": "HEK-293T",
    "readoutValue": 94
  },
  {
    "molecule": "CCC(=O)OCC(=O)[C@@]1(OC(=O)CC)[C@@H](C)C[C@H]2[C@@H]3CCC4=CC(=O)C=C[C@]4(C)[C@@]3(Cl)[C@@H](O)C[C@@]21C [BECLOMETHASONE DIPROPIONATE]",
    "assayTarget": "HEK-293T",
    "readoutValue": 83
  },
  {
    "molecule": "CCCCCCNC(=O)Nc1ccc(S(=O)(=O)Nc2ccc(CCNC[C@H](O)COc3ccc(O)cc3)cc2)cc1 [L-755507]",
    "assayTarget": "HEK-293T",
    "readoutValue": 92
  },
  {
    "molecule": "CN1CCC(C(=O)c2cccc(NC(=O)c3c(F)cc(F)cc3F)n2)CC1",
    "assayTarget": "HEK-293T",
    "readoutValue": 89
  },
  {
    "molecule": "CC(C)C[C@@H]1NC(=O)[C@@H](C(C)C)NC(=O)[C@@H]2CCCN2C(=O)[C@@H](CC(=O)O)NC(=O)[C@@H](Cc2c[nH]c3ccccc23)NC1=O [BQ-123] (cyclo(L[dW][dD]P[dV]))",
    "assayTarget": "HEK-293T",
    "readoutValue": 88
  },
  {
    "molecule": "Cc1c(Cc2ccc3ccccc3n2)c2cc(F)ccc2n1CC(=O)O [TIMAPIPRANT]",
    "assayTarget": "HEK-293T",
    "readoutValue": 94
  },
  {
    "molecule": "OCCCNc1cc(-c2ccnc(Nc3cccc(Cl)c3)n2)ccn1",
    "assayTarget": "HEK-293T",
    "readoutValue": 58
  },
  {
    "molecule": "CC(F)(F)CN1CCOc2c(nn(-c3ccccc3Cl)c2-c2ccc(Cl)cc2)C1=O",
    "assayTarget": "HEK-293T",
    "readoutValue": 94
  },
  {
    "molecule": "CCCCC[C@H](O)/C=C/[C@H]1[C@H](O)CC(=O)[C@@H]1CCCCCCC(=O)O [ALPROSTADIL]",
    "assayTarget": "HEK-293T",
    "readoutValue": 90
  },
  {
    "molecule": "O=c1ccc2ccc(OCCCCN3CCN(c4cccc5sccc45)CC3)cc2[nH]1 [BREXPIPRAZOLE]",
    "assayTarget": "HEK-293T",
    "readoutValue": 59
  }
]

Numbers sourced from ChEMBL document CHEMBL5058577.
